biological target: UniProt:Q14973; experiment: Screening taurocholate uptake assay (96-well, [14C]taurocholate, 10 µM drug); settings: ranking over the functional and the binding screening assay
Sequence (Q14973 whole entry): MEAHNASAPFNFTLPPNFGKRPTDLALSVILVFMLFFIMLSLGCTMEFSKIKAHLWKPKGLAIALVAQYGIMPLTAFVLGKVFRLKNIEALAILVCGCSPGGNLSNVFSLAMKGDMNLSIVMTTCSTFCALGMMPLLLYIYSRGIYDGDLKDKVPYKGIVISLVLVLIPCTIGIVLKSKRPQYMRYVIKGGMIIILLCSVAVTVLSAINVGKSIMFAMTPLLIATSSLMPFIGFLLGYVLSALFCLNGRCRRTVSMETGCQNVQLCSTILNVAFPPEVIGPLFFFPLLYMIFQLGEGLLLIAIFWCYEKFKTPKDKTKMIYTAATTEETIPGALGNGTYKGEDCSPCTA
Where a name gives a salt, the structure may show the parent alone.
Lab note: compare Ranking score with 200, writing yes (1) if less and no (0) if equal or more.

## Task Does the reported Ranking score of the following compound sit strictly below 200? CCCOc1ccccc1-c1nc2nn[nH]c2c(=O)[nH]1
## Result yes (1)

## Task Does the reported Ranking score of the following compound sit strictly below 200? CCc1oc2ccccc2c1C(=O)c1cc(Br)c(O)c(Br)c1
## Result yes (1)

## Task Does the reported Ranking score of the following compound sit strictly below 200? CCCc1ncc(C[n+]2ccccc2C)c(N)n1 [Amprolium hydrochloride]
## Result no (0)

## Task Does the reported Ranking score of the following compound sit strictly below 200? CC=CC(=O)N(CC)c1ccccc1C (mixture of isomers)
## Result no (0)

## Task Does the reported Ranking score of the following compound sit strictly below 200? Cl.OC1CCCCC1N1CCC(c2ccccc2)CC1 (stereo not drawn) [L(-)-vesamicol hydrochloride]
## Result no (0)

## Task Does the reported Ranking score of the following compound sit strictly below 200? CC[C@H](C)C(=O)O[C@H]1C[C@@H](C)C=C2C=C[C@H](C)[C@H](CC[C@@H]3C[C@@H](O)CC(=O)O3)[C@H]21
## Result yes (1)

## Task Does the reported Ranking score of the following compound sit strictly below 200? CC(C)n1c(/C=C/C(O)CC(O)CC(=O)O)c(-c2ccc(F)cc2)c2ccccc21 (centres unmarked) [Fluvastatin sodium salt]
## Result yes (1)
